System: CCRF-CEM leukemia
Test: NCI tumour cell line growth inhibition, 48 h; in the data active = GI50 below about 0.43 µM; inactive = the rest
Outcome codes: active, inactive

query.smiles: O=C(Nc1ccccc1O)c1ccc(NS(=O)(=O)c2cccc3cccnc23)cc1
class.assignment: inactive
//
query.smiles: CCS(=O)(=O)c1ccc(OC)c(Nc2ncc(-c3ccccc3Cl)o2)c1
class.assignment: inactive
//
query.smiles: COc1cc(-n2ccnc2)cc(OC)c1OC
class.assignment: inactive
//
query.smiles: CC1=C[C@H]2C[C@H](C)[C@H]3CC[C@H](C)[C@]4(C1)C(=O)C(O)=C(C)C(=O)[C@@]324
class.assignment: inactive
//
query.smiles: Cc1cc(Cl)ccc1Nc1nc(C(F)(F)F)ccc1C(=O)N/N=C/c1ccccc1Cl
class.assignment: active
//
query.smiles: O=C(C[P+](c1ccccc1)(c1ccccc1)c1ccccc1)C[P+](c1ccccc1)(c1ccccc1)c1ccccc1
class.assignment: active
//
query.smiles: O=c1cc(-c2ccccc2)oc2cc(OC/C(=N/O)c3ccc(F)cc3)ccc12
class.assignment: inactive
